Target: recombinant glucosyltransferase domain of C. difficile Toxin B/TcdB (Clostridioides difficile)
Construct: 6-His (C); purchased R&D Systems 6246-GT
Test: biochemical
pIC50: −log10 of the molar value.
Measurement Type: pIC50

O=C(Nc1nncs1)c1ccc(CN2C(=O)c3ccc(Cl)cc3NC(=O)[C@H]2Cc2ccccn2)cc1; 6.00 to 7.00

# map each molecule to its pIC50
1. Cc1cc(CN2C(=O)c3ccc(Cl)cc3NC(=O)[C@H]2Cc2ccccn2)ccc1C(=O)Nc1ccc(C#N)cn1
2. Cc1cnc(NC(=O)c2ccc(CN3C(=O)c4ccc(Cl)cc4NC(=O)[C@H]3Cc3ccccn3)cc2Cl)nc1
3. O=C1Nc2cc(Cl)ccc2C(=O)N(C[C@H]2CC[C@H](C(=O)N3CCCc4cccnc43)CC2)[C@@H]1Cc1ccccn1
4. O=C(Nc1ccccn1)c1ccc(CN2C(=O)c3ccc(Br)cc3NC(=O)[C@H]2Cc2cccnc2)cc1
5. O=C(Nc1ccccn1)c1ccc(CN2C(=O)c3ccc(Cl)cc3NC(=O)C2Cc2cnccn2)cc1 (centres unmarked)
6. Cc1ccc2c(c1)NC(=O)[C@@H](Cc1ccc(Cl)c(Cl)c1)N(Cc1ccc(C(=O)Nc3ccccn3)cc1)C2=O
7. O=C(O)c1ccc(CN2C(=O)c3ccc([N+](=O)[O-])cc3NC(=O)[C@H]2Cc2cccnc2)cc1

Resp:
1. > 7.00
2. > 7.00
3. 4.46 to 5.00
4. > 7.00
5. > 7.00
6. 6.00 to 7.00
7. 5.00 to 6.00

# map each molecule to its pIC50
1. O=C(CN1CCOCC1)Nc1cc(CN2C(=O)c3ccc(Cl)cc3NC(=O)[C@H]2Cc2ccccn2)ccc1C(=O)O [Example 22h]
2. O=C(Nc1ncccc1Cl)c1ccc(CN2C(=O)c3ccc(Cl)cc3NC(=O)[C@H]2Cc2cccnc2)cc1
3. O=C(O)c1ccc(CN2C(=O)c3ccc(Cl)cc3NC(=O)[C@H]2Cc2ccccn2)cc1-c1cccc(Cl)c1
4. O=C(N[C@H]1CC[C@H](CN2C(=O)c3ccc(Cl)cc3NC(=O)[C@H]2Cc2ccccn2)CC1)c1ccccn1 [Example 26j]
5. COc1cc(CN2C(=O)c3ccc(Cl)cc3NC(=O)[C@H]2Cc2ccccn2)ccc1C(=O)Nc1ccc(C)cn1
6. COc1cnc(NC(=O)c2ccc(CN3C(=O)c4ccc(Cl)cc4NC(=O)[C@H]3Cc3ccccn3)cc2Cl)cn1
7. Cn1cccc(C(=O)c2ccc(CN3C(=O)c4ccc(Cl)cc4NC(=O)[C@H]3Cc3ccccn3)cc2)c1=O [Example 53a]
8. C[C@@H]1C(=O)Nc2cc(Cl)ccc2C(=O)N1Cc1ccc(C(=O)Nc2nc3ccccc3[nH]2)cc1

Resp:
1: 5.00 to 6.00; 2: 6.00 to 7.00; 3: 6.00 to 7.00; 4: 6.00 to 7.00; 5: > 7.00; 6: > 7.00; 7: 6.00 to 7.00; 8: 5.00 to 6.00

# map each molecule to its pIC50
1. COc1cc(NC(=O)c2ccc(CN3C(=O)c4ccc(Cl)cc4NC(=O)[C@H]3Cc3cccnc3)cc2)ncn1
2. O=C(O)c1ccc(CN2C(=O)c3ccc(Cl)cc3NC(=O)[C@H]2Cc2ccccn2)s1
3. Cc1ccc(NC(=O)c2ccc(CN3C(=O)c4ccc(Cl)cc4NC(=O)[C@H]3CCN(C)C)cc2)nc1 [Example 10f]
4. Cc1ccc(NC(=O)c2ccc(CN3C(=O)c4ccc(Cl)cc4NC(=O)[C@H]3Cc3ccccn3)s2)nc1
5. O=C(Nc1ccccn1)c1ccc(CN2C(=O)c3ccc(Cl)cc3NC(=O)[C@H]2Cc2ccccn2)s1
6. O=C(O)c1ccc(CN2C(=O)c3ccc(Br)cc3NC(=O)[C@H]2Cc2cccnc2)cc1
7. Cc1ccc(C(=O)N[C@H]2CC[C@H](CN3C(=O)c4ccc(Cl)cc4NC(=O)[C@H]3Cc3ccccn3)CC2)nc1 [Example 25a]

Resp:
1. > 7.00
2. 6.00 to 7.00
3. 4.46 to 5.00
4. 6.00 to 7.00
5. 6.00 to 7.00
6. 5.00 to 6.00
7. 6.00 to 7.00

----------
Target: recombinant glucosyltransferase domain of C. difficile Toxin B/TcdB (Clostridioides difficile, UniProt P18177)
Construct: 6-His (C); purchased R&D Systems 6246-GT
Sequence (P18177 1-543): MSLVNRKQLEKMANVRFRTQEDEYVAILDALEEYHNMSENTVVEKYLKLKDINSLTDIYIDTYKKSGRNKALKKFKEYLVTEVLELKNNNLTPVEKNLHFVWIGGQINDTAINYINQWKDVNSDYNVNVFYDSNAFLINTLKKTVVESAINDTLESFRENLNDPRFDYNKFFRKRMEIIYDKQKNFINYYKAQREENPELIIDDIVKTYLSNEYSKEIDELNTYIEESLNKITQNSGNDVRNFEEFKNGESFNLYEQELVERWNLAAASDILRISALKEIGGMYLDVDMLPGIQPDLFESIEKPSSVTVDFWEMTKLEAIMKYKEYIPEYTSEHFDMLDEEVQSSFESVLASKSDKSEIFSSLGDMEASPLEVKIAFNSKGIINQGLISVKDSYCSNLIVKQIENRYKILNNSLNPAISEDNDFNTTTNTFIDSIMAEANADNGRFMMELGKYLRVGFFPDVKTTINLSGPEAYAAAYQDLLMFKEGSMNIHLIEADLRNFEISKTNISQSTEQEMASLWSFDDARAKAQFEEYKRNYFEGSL
Assay: biochemical
Kindly supply the reported IC50 values for the records listed here.

# map each molecule to its IC50
1. C[C@@H]1C(=O)Nc2cc(Cl)ccc2C(=O)N1Cc1ccc(C(=O)Nc2ccccn2)cc1
2. O=C(NS(=O)(=O)c1ccccc1)c1ccc(CN2C(=O)c3ccc(Cl)cc3NC(=O)[C@H]2Cc2cccnc2)cc1 [Example 15a]
3. O=C(Nc1ccc(F)cn1)c1ccc(CN2C(=O)c3ccc(Cl)cc3NC(=O)[C@H]2Cc2ccccn2)cc1F
4. COc1ccc2c(c1)NC(=O)[C@@H](Cc1cccnc1)N(Cc1ccc(C(=O)Nc3ccccn3)cc1)C2=O
5. O=C(Nc1ccc(CN2C(=O)c3ccc(Cl)cc3NC(=O)[C@H]2Cc2ccccn2)cc1)c1ccc(Cl)cn1 [Example 26i]
6. Cc1ccc(NC(=O)c2ccc(S(=O)(=O)N3Cc4ccc(Cl)cc4NC(=O)[C@H]3Cc3ccccn3)cc2)nc1 [Example 19a]
7. COc1cnc(NC(=O)c2ccc(S(=O)(=O)N3Cc4ccc(Cl)cc4NC(=O)[C@H]3Cc3ccccn3)cc2)nc1 [Example 19h]

Resp:
1. < 0.1 µM
2. 1 to 10 µM
3. < 0.1 µM
4. < 0.1 µM
5. < 0.1 µM
6. 0.1 to 0.999 µM
7. < 0.1 µM

Req: Tell me the measured IC50 of `O=C(Nc1ccc(C(F)(F)F)cn1)c1ccc(CN2C(=O)c3ccc(Cl)cc3NC(=O)[C@H]2Cc2ccccn2)cc1` , please.
Resp: < 0.1 µM

----------
Biological target: recombinant glucosyltransferase domain of C. difficile Toxin B/TcdB (Clostridioides difficile, UniProt P18177)
Construct: 6-His (C); purchased R&D Systems 6246-GT
Assay: biochemical
Measurement Type: IC50

# map each compound to its IC50
1. CC(=NO)NC(=O)c1ccc(CN2C(=O)c3ccc(Cl)cc3NC(=O)[C@H]2Cc2cccnc2)cc1
2. O=C1Nc2cc(Cl)ccc2C(=O)N(C[C@H]2CC[C@H](C(=O)O)CC2)[C@@H]1Cc1ccccn1

Resp:
100 to 999 nM
10000 to 35000 nM

# map each compound to its IC50
1. Cc1cc(CN2C(=O)c3ccc(Cl)cc3NC(=O)[C@H]2Cc2ccccn2)cc(C)c1NC(=O)c1ccccn1 [Example 26k]
2. Cn1cnc(C(=O)Nc2ccc(CN3C(=O)c4ccc(Cl)cc4NC(=O)[C@H]3Cc3ccccn3)cc2)c1 [Example 27k]
3. Cn1ccnc1C(=O)[C@H]1CC[C@H](CN2C(=O)c3ccc(Cl)cc3NC(=O)[C@H]2Cc2ccccn2)CC1 [Example 33c]
4. CC(C)C[C@@H]1C(=O)Nc2cc(Cl)ccc2C(=O)N1Cc1ccc(C(=O)Nc2ccccn2)cc1 [Example 35k]
5. Cc1ccc(NC(=O)[C@H]2CC[C@H](CN3C(=O)c4ccc(Cl)cc4NC(=O)[C@H]3Cc3ccccn3)CC2)nc1

Resp:
["100 to 999 nM", "< 100 nM", "1000 to 10000 nM", "10000 to 35000 nM", "< 100 nM"]

Req: Tell me the measured IC50 of O=C(Nc1ncc(C(F)(F)F)cn1)c1ccc(CN2C(=O)c3ccc(Cl)cc3NC(=O)[C@H]2Cc2ccccn2)cc1 [Example 49a] , please.
Resp: < 100 nM

----------
Biological target: recombinant glucosyltransferase domain of C. difficile Toxin B/TcdB (Clostridioides difficile)
Construct: 6-His (C); purchased R&D Systems 6246-GT
Experiment: biochemical
Measurement Type: IC50

C[C@@H]1C(=O)Nc2cc(Cl)ccc2C(=O)N1Cc1ccc(C(=O)Nc2ccc(-c3ccccc3)cn2)cc1; 100 to 999 nM
Cc1ccc(NC(=O)c2ccc(CN3C(=O)c4ccc(N)cc4NC(=O)[C@H]3C)cc2)nc1 [Example 16a]; 1000 to 10000 nM
O=C(Nc1ccccn1)c1ccc(CN2C(=O)c3cc(Cl)ccc3NC(=O)[C@H]2Cc2cccnc2)cc1 [Example 35h]; 100 to 999 nM

# map each molecule to its IC50
1. O=C1Nc2cc(Cl)ccc2C(=O)N(Cc2ccc(S(=O)(=O)Nc3ccccn3)cc2)[C@@H]1Cc1cccnc1 [Example 36a]
2. COc1cnc(NC(=O)c2ccc(CN3C(=O)c4ccc(Cl)cc4NC(=O)[C@H]3Cc3cccnc3)cc2)nc1
3. O=C(Nc1nccs1)c1ccc(CN2C(=O)c3ccc(Cl)cc3NC(=O)[C@H]2Cc2cccnc2)cc1
4. O=C(Nc1ccccn1)c1ccc(CN2C(=O)c3ccc(Cl)cc3NC(=O)[C@H]2Cc2ccccn2)cc1Cl

Resp:
1: 1000 to 10000 nM; 2: < 100 nM; 3: < 100 nM; 4: < 100 nM
